target: T1, human collagen type I, acid soluble, extracted from placenta (Sigma C7774) (human, UniProt P02452 162-1218; P08123 80-1119); assay: dried collagen assay
T1 construct: tissue extract, gelled and dried in wells; also called dried human collagen; h-Collagen
T1 sequence (P02452 162-1218 limits assumed, chain 1 of 2): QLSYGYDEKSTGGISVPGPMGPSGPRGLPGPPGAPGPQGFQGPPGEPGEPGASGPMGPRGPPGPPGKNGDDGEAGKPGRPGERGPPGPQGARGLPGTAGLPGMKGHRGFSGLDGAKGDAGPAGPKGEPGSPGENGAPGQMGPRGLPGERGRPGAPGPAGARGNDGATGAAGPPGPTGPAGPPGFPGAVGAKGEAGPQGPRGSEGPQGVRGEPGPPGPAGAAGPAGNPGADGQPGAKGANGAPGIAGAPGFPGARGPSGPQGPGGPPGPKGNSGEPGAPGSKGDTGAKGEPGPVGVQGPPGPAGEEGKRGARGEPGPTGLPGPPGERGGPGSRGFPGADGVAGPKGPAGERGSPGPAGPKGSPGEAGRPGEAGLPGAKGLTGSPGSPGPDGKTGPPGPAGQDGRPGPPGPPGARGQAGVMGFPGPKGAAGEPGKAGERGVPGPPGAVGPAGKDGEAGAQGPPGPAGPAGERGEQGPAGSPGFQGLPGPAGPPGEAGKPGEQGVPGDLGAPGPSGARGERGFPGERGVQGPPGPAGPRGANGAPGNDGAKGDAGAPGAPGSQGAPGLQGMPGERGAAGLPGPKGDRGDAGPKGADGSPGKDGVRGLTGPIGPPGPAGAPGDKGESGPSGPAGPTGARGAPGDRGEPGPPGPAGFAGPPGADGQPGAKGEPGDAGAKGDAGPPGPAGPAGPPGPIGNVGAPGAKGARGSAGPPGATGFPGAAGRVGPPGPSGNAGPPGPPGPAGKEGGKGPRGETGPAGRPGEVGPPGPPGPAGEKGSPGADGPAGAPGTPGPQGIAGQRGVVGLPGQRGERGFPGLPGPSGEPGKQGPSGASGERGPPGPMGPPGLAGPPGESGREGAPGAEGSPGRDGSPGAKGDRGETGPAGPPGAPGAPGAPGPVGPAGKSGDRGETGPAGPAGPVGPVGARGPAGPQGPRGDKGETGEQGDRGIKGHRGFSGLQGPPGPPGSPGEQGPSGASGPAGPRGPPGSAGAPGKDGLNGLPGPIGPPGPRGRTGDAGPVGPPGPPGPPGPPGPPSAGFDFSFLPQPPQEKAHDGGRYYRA
T1 sequence (P08123 80-1119 limits assumed, chain 2 of 2): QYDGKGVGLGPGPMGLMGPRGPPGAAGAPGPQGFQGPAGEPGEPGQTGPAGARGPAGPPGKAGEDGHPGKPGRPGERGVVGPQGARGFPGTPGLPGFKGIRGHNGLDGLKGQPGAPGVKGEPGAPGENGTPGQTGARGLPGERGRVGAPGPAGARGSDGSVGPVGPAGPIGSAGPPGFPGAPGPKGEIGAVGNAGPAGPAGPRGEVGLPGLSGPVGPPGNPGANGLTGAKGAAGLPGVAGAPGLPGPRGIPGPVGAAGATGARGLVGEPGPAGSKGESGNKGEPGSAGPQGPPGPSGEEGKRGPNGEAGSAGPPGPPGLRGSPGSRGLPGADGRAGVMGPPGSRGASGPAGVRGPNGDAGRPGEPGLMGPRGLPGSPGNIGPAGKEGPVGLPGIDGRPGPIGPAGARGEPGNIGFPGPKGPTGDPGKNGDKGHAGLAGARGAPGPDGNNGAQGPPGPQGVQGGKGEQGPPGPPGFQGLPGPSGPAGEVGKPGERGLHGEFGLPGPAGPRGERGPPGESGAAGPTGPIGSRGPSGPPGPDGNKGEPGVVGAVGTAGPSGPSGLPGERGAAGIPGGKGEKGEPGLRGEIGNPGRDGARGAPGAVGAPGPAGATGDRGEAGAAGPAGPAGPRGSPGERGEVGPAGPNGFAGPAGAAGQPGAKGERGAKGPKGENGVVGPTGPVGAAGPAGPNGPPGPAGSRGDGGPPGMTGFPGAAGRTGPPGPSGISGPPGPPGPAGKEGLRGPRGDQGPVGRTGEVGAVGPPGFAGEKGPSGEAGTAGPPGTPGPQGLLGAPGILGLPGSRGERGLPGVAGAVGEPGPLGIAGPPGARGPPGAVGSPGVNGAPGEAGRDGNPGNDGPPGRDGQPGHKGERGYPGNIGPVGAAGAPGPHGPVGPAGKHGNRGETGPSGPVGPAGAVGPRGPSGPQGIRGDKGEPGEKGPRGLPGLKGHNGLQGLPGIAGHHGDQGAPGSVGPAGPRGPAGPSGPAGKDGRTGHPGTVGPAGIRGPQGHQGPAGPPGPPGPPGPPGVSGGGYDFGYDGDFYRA
Bridge positions count the residues as written; N and C are the ends. Square brackets hold non-standard residues; d marks the D form. Primed or numbered codes have the meaning given here. Side chains are listed from the residue outwards. Ends that are not written are not given here. Dip = N[C@H](C(=O)O)C(c1ccccc1)c1ccccc1; Hyp = O=C(O)[C@@H]1C[C@@H](O)CN1; NMeA = CN[C@@H](C)C(=O)O; Gd^T = not defined here; Gd^T″ = GdDTPA-thiourea
MEASURE: % bound (%)

Solved cases (3 shown):
BINDER	% bound / %
{Gd^T″}-GQWHCTTRF[NMeA]HHYCLYG (disulfide 5-14 (inferred)) [Compound ID 938]	16
{Gd^T″}-DWTCS[dA]DEYTWHCNYE (disulfide 4-13 (inferred); not fully specified (C-terminus)) [Compound ID 835]	17
{Gd^T}-PPQWHCTTRF[Hyp]HHYCLYG (disulfide 6-15; not fully specified (C-terminus); reading uncertain) [Compound ID 856]	52

P: {Gd^T″}-GQWHCTTRFPHH[hTyr(Me)]CLYG (disulfide 5-14 (inferred)) [Compound ID 934]
Q: {Gd^T″}-GK([Gly-Gd^T″])WHCTTYFPHHYCL[Dip]G (disulfide 5-14 (inferred); not fully specified) [Compound ID 967]
-- ask Hi! Which is lower in terms of % bound, the first one P or the second one Q ? // output: label of the selected item
-- reply Q
